This collection of values is drawn from the RNAGym collection of RNA variant scans (doi:10.1126/science.aae0568).

B1: tRNA (parent)
chain: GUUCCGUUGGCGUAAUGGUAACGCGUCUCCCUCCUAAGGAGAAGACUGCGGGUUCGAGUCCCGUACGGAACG

Variants of: B1
EXPERIMENT: yeast fitness relative to wild type (ratio to wild type); higher = fitter; tRNA-Arg(CCU), competitive growth, 37 C, YPD
Fewer inactive variants are shown than the library holds.
Recorded yeast fitness for the following variants
PARAMETER: yeast fitness

> print(dat)
              variant.designation      parameter  relation  numeric.result
 1              U2A U8A C34A A65U  yeast fitness         ≤             0.5
 2                      G67U A70G  yeast fitness         =           0.822
 3                      A21G A57C  yeast fitness         =           0.709
 4                  C5U U13C C61U  yeast fitness         =           0.673
 5                      G25A A57U  yeast fitness         =           0.772
 6                      A45C G58A  yeast fitness         =           0.977
 7                 A20G A65G A70C  yeast fitness         =           0.694
 8                      A15C C24U  yeast fitness         =           0.601
 9                 U13C C24G G67C  yeast fitness         ≤             0.5
10                 A20U G23A C49U  yeast fitness         =           0.609
11                 A36U C49G G50C  yeast fitness         ≤             0.5
12                      A15C U64A  yeast fitness         =            0.74
13                      C31U G68C  yeast fitness         =            0.68
14            C29U C31U U54G G68A  yeast fitness         ≤             0.5
15            U32C A36U G38A G50A  yeast fitness         =           0.584
16   U2C A14G G18A C33U C34U G39C  yeast fitness         ≤             0.5
17                 C34U G58A A65U  yeast fitness         =           0.618
18                       U3C C22G  yeast fitness         =           0.859
19             C4A C33G A45G A70U  yeast fitness         ≤             0.5
20                 C22U C31U U47G  yeast fitness         ≤             0.5
21            A14C G25C G52A C66U  yeast fitness         ≤             0.5
22                 G17A A69C A70C  yeast fitness         =           0.588
23                 C31A G48A C66U  yeast fitness         =           0.646
24  U13G C22U C31A C55U G63A A69C  yeast fitness         ≤             0.5
25                 A20C A40G C60G  yeast fitness         ≤             0.5
26                 G18C A40C C49G  yeast fitness         ≤             0.5
27                      G38A C46A  yeast fitness         =           0.993
28             G6C C31U A43G A69U  yeast fitness         ≤             0.5
29                      A42G G44C  yeast fitness         =           0.906
30                      C22G U35G  yeast fitness         =            0.62
31                      A21C U59C  yeast fitness         =           0.777
32                      A37G U47C  yeast fitness         =           0.744
33              C5U U8A G18C G23A  yeast fitness         ≤             0.5
34                       G9C C62U  yeast fitness         =           0.814
35             U8C C33A C55G A69C  yeast fitness         ≤             0.5
36            G10C C27A A42U C62G  yeast fitness         =           0.556
37                  U2C C27U A43G  yeast fitness         =           0.593
38                 A20C C29U C66U  yeast fitness         =           0.603
39                      U32C U47A  yeast fitness         =             0.9
40            A21C A37C C55A G58A  yeast fitness         =           0.515
41                      U19G G68C  yeast fitness         =           0.802
42                 U16C G56A G68A  yeast fitness         =            0.69
43                 G17A C31U A42C  yeast fitness         =           0.582
44                       G9C A45G  yeast fitness         =            0.78
45             C4A C30U A57G A65U  yeast fitness         ≤             0.5
46            C11U U19C U59C C61A  yeast fitness         ≤             0.5
